- protocolDetails: Absorbance spectra of cyanine fluorophores in different solvents (absorbance maximum, molar absorptivity)
- setupConditions: 10% (v/v) FBS in pH 7.4 PBS

compound	absorbance maximum (λmax, abs) (nm)
CC1(C)C(/C=C/C2=C3Oc4ccccc4OC4=C3C(CC2)CC/C4=C\C=C2\N(CCCCS(=O)(=O)[O-])c3ccccc3C2(C)C)=[N+](CCCCS(=O)(=O)[O-])c2ccccc21.[Na+] (stereo not drawn) [BisSO3-NIR-890]	877
CC1(C)C(/C=C/C2=C3Oc4ccc(C(=O)N(CCCS(=O)(=O)O)CCC(=O)O)cc4OC4=C3C(CC2)CC/C4=C\C=C2\N(CCCCS(=O)(=O)O)c3ccc(S(=O)(=O)[O-])cc3C2(C)C)=[N+](CCCCS(=O)(=O)O)c2ccc(S(=O)(=O)O)cc21.N.N.N.N (stereo not drawn) [Compound 10]	871
CC1(C)C(/C=C/C2=C3Oc4ccc(CCC(=O)O)cc4OC4=C3C(CC2)CC/C4=C\C=C2\N(CCCCS(=O)(=O)[O-])c3ccc(S(=O)(=O)[O-])cc3C2(C)C)=[N+](CCCCS(=O)(=O)[O-])c2ccc(S(=O)(=O)[O-])cc21.[Na+].[Na+].[Na+] (stereo not drawn) [NIR-900-Et]	864
CC1(C)C(/C=C/C2=C3C4=C(/C(=C/C=C5/N(CCCCS(=O)(=O)O)c6ccc(S(=O)(=O)[O-])cc6C5(C)C)CCC4CC2)c2cc(C(=O)O)ccc23)=[N+](CCCCS(=O)(=O)O)c2ccc(S(=O)(=O)O)cc21.N.N.N (stereo not drawn) [Compound 8]	1062
CC1(C)C(/C=C/C2=C3Oc4ccc(C(=O)O)cc4OC4=C3C(CC2)CC/C4=C\C=C2\N(CCCCS(=O)(=O)[O-])c3ccc(S(=O)(=O)[O-])cc3C2(C)C)=[N+](CCCCS(=O)(=O)[O-])c2ccc(S(=O)(=O)[O-])cc21.[Na+].[Na+].[Na+] (stereo not drawn) [Compound 6]	868
CC1(C)C(/C=C/C2=C3Sc4ccccc4SC4=C3C(CC2)CC/C4=C\C=C2\N(CCCCS(=O)(=O)[O-])c3ccc(S(=O)(=O)[O-])cc3C2(C)C)=[N+](CCCCS(=O)(=O)[O-])c2ccc(S(=O)(=O)[O-])cc21.[Na+].[Na+].[Na+] (stereo not drawn) [NIR-950]	902
